Molecular target: Prostaglandin G/H synthase 1 (Ovis aries, UniProt P05979)
Sequence (P05979 whole entry): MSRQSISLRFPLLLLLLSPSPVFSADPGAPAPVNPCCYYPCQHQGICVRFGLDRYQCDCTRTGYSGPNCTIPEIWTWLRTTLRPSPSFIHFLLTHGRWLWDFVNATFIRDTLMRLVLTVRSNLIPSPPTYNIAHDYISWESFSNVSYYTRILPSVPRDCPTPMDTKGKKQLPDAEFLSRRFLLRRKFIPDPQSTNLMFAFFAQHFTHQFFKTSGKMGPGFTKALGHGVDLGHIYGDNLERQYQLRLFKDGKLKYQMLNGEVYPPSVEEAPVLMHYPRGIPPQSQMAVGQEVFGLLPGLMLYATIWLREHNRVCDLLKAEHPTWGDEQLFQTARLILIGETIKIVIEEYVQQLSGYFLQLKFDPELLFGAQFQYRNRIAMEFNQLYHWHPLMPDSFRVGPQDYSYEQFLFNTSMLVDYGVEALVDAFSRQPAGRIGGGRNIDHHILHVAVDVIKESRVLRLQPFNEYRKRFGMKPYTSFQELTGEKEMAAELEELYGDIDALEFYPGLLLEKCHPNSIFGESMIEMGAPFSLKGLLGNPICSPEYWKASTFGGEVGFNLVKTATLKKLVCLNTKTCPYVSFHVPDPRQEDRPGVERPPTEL
quantity-name: IC50 (nM)
Numeric only. Scale: nM

Query: So what's the measured IC50 for this one? COc1ccc2[nH]cc(CCNC(=O)c3cc4cc(Cl)ccc4n3Cc3ccc(F)cc3)c2c1
Result: 407
